Target: recombinant human ACC1 (rhACC1) (Homo sapiens, UniProt Q13085, DEL44-44)
Construct: recombinant baculovirus containing full length human ACC1 cDNA; made in house; host or cells: SF9 insect cells (baculovirus)
Assay: recombinant hACC1 Transcreener assay (direct inhibition of ACC1 activity)
Assay type: biochemical
Conditions: Transcreener ADP detection FP assay, 50 μM ATP, 30 μM acetyl-CoA, 120 min at 25° C.
propertyName: IC50 (nM)

A selection of reference data follows.
# compound, IC50, nM
data = [
    ("CC(C)n1ncc2c1C(=O)CC1(CCN(C(=O)c3cnc(-c4ccccn4)[nH]3)CC1)C2 [Example 11A-37]", 1030),
    ("CC(C)n1ncc2c1C(=O)CC1(CCN(C(=O)c3cn4cccc4cn3)CC1)C2 [Example 11A-34]", 2140),
    ("CC(C)n1ncc2c1C(=O)CC1(CCN(C(=O)c3cccc(-c4cc[nH]n4)c3)CC1)C2 [Example 11A-15]", 112),
    ("Cc1noc(-c2cc(C(=O)N3CCC4(CC3)CC(=O)c3c(cnn3C(C)C)C4)ccn2)n1 [Example 2A-60]", 8240),
]

I: Cc1cc(C(=O)N2CCC3(CC2)CC(=O)c2c(cnn2C)C3)ccc1Cl [Example 2A-4]
II: CC(C)n1ncc2c1C(=O)CC1(CCN(C(=O)c3ccc4c(c3)ncn4C)CC1)C2 [Example 11A-55]
Compare reported IC50 values for I and II . Which is lower? Refer to your chosen item by its label in the answer.
II

A: CC(C)(C)n1ncc2c1C(=O)CC1(CCN(C(=O)c3cn4cccc4cn3)CC1)C2 [Example 11A-45]
B: Cc1nc2c(Cl)cc(C(=O)N3CCC4(CC3)CC(=O)c3c(cnn3C(C)C)C4)cc2[nH]1 [Example 2A-52]
Exercise: compare A and B ; which one has the greater IC50? Your choice should be expressed through its label.
A
(A: 1500 nM, B: 54.2 nM)

a: CC(C)(C)n1ncc2c1C(=O)CC1(CCN(C(=O)c3cccnc3C(N)=O)CC1)C2 [Example 11A-11]
b: CC(C)(C)n1ncc2c1C(=O)CC1(CCN(C(=O)c3ccn4ccnc4c3)CC1)C2 [Example 11A-67]
Of the two listed items, which has the higher IC50? First: a Second: b Identify your pick by its label.
a

a: CC(C)n1ncc2c1C(=O)CC1(CCN(C(=O)c3ccc4cc[nH]c(=O)c4c3)CC1)C2 [Example 2A-13]
b: CC(C)n1ncc2c1C(=O)CC1(CCN(C(=O)c3cc4cccn4cn3)CC1)C2 [Example 11A-47]
Larger number for IC50: a , or b ? Let me know the label of the one you choose.
b
(b: 850 nM, a: 95.3 nM)
